experiment: NCI Yeast Anticancer Drug Screen. Data for the rad50 strain (AID 155);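 also: 0% = growth of vehicle-only cultures of the same strain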; details: S. cerevisiae rad50 strain growth inhibition; at 50.0 µM (retest, dose inferred, filed as 5.0); hits give high values
About 79,000 compounds went through this panel and 15% of them were active in at least one assay; those are over-represented in the sample as a whole.
property label: growth inhibition (%)
One number for each entry, in %.

Some solved cases for reference:
compound	growth inhibition [%]
COc1ccc([N+](=O)[O-])cc1[I+]c1cc([N+](=O)[O-])ccc1OC	95
CCOC(=O)C(C(C)=O)C1=C(Cl)C(=O)c2ccccc2C1=O (configuration not stated)	100
Cc1cccc2cc3c(cc12)c(C)cc1ccccc13	6
COc1ccccc1C1SC(c2ccccc2)(c2ccccc2)OC1=O (configuration not stated)	-9
CCCCCC=C(c1cc(Br)cc(C(=O)O)c1O)c1cc(Br)cc(C(=O)O)c1O	91

Fill in growth inhibition for each of the 7 compounds listed.
1. CCOC(=O)c1c(C)[nH]c(CO)c1C
2. COC(=O)C(C#N)=C(SC)SC
3. O=C(O)Cc1nc2ccccc2[nH]1
4. O=C1c2ccccc2NC(=O)C2C1C(c1ccccc1)CC2(O)c1ccccc1 (configuration not stated)
5. Nc1c(F)cccc1F
6. O=[N+]([O-])c1ccc2c(c1)OCO2
7. CCOC(=O)C(C)(c1c(C)[nH]c2ccccc12)c1c(C)[nH]c2ccccc12

1: 14; 2: 99; 3: 95; 4: 87; 5: 8; 6: 22; 7: 96

----------
assay: NCI Yeast Anticancer Drug Screen. Data for the mec2-1 strain (AID 157); conditions: S. cerevisiae mec2-1 strain, at 50.0 µM, hits give high values
This is part of a sample that, as a whole, favours compounds with a hit. Of some 79,000 tested, about 15% had one in any assay.
I would appreciate it if you labelled entries rule met when growth inhibition is 70% or higher, otherwise rule not met.

compound	label
CN(C)CC(CN(C)C)C(=O)c1ccc(Oc2ccc(Cl)c(Cl)c2)cc1	rule met

Evaluate CCOC(=O)NC(NC(=O)OCC)C(=O)Nc1cccc2c(OC(=O)C(NC(=O)OCC)NC(=O)OCC)c(N=Nc3ccc(S(=O)(=O)Nc4nccs4)cc3)cc(N=Nc3ccc(S(=O)(=O)Nc4nccs4)cc3)c12 (tested in a mixture with another compound) : growth inhibition at minimum 70%? rule met

Evaluate `Cc1c(CCl)c(=O)oc2c(C)c3occ(CCl)c(=O)c3cc12` : growth inhibition at minimum 70%? rule met

Is growth inhibition at least 70%? Consider `CC(C)c1ccc(C(=O)OC2CCCCC2)cc1` rule not met

State whether the measured growth inhibition reaches 70%, counting equality as reaching it, for CSc1ncnc2ncn(C3OC(CO)C(O)C3O)c12 (stereo not given) rule not met

----------
experiment: NCI Yeast Anticancer Drug Screen. Data for the bub3 strain (AID 167); conditions: S. cerevisiae bub3 mutant strain, at 50.0 µM, hits give high values
Compounds without any hit were thinned out: in the full panel of roughly 79,000, 15% have a hit.
Give TRUE when the value for growth inhibition is at least 70%. Give FALSE when it is less.

molecule	label
Cc1cccc(C)c1N1C(=O)C(=O)C(c2nc3ccccc3s2)/C(=N/NC(=O)c2ccccc2O)C1=O (stereo unspecified)	FALSE
COc1ccc2c(C)cc(N/N=C/c3ccc(OC)c4ccccc34)nc2c1	FALSE
CCOC(=O)c1c(Cl)c(CC)c(N=[N+]=[N-])n2c1nc1ccccc12	FALSE
O=C1C(c2c[nH]c3ccc(Br)cc23)=Nc2ccc(Br)cc21	TRUE
CCCCCC(CO)C(O)(C(F)(F)F)C(F)(F)F (stereo unspecified)	FALSE

Would you kindly look at the next entry?
Could you tell me if the measured growth inhibition of CC(CO)(Nc1ccc([N+](=O)[O-])cc1[N+](=O)[O-])C(=O)O (stereo unspecified) reaches 70% or more? TRUE

----------
experiment: NCI Yeast Anticancer Drug Screen. Data for the bub3 strain (AID 167); settings: S. cerevisiae bub3 mutant strain, at 50.0 µM (retest, dose inferred, filed as 5.0), hits give high values
The panel holds about 79,000 compounds, 15% with a hit somewhere; the sample as a whole holds those more often.
The threshold is inclusive: growth inhibition of exactly 60% counts as Satisfied; values below receive Not satisfied.

Field: example entries. Status: answers known.
compound	label
O[C@H]1[C@H]2c3cc4c(cc3CN3CCC(=C[C@@H]1O)[C@H]23)OCO4	Satisfied
CN(C)c1cccc(F)c1C(=O)NC(=O)Nc1ccc(Cl)cc1	Not satisfied
CCOC(=S)SCc1nc2ccccc2[nH]1	Satisfied
CN(C)CCC1(C2=CCCC2)CC/C(=C\c2ccccc2Cl)C1=O (stereo not drawn)	Satisfied

Does the reported growth inhibition for `C=C/C=C/CC=C` fall at or above the 60% mark? Not satisfied

Determine whether this compound has growth inhibition no lower than 60%: O=C1C2=C(Nc3cc([N+](=O)[O-])ccc3N2)OC1c1c2ccccc2cc2ccccc12 (stereo not drawn) Satisfied

# bool: growth inhibition of CC1N=C(Cc2ccccc2)SC1C (stereo not drawn) >= 60% Satisfied

Determine whether this compound has growth inhibition no lower than 60%: `CN(C)C(=O)c1ccc(SC(=S)NCc2ccccc2)cc1` Satisfied

Is growth inhibition at least 60%? Consider C=CCC(O)C(=O)OC1CC(C)CCC1C(C)(C)c1ccccc1 (stereo not drawn) Satisfied

I'd appreciate it if you could say whether `Clc1ccc(N=Cc2c3ccccc3cc3ccccc23)c(Cl)c1` has growth inhibition at least equal to 60%. Not satisfied

I'd appreciate it if you could say whether `O=S(=O)(Nc1ccc2ccccc2c1)c1ccccc1` has growth inhibition at least equal to 60%. Satisfied

Confirm if growth inhibition reported for the compound `Nc1c(/C=C/c2cc3cc(C4=NCCN4)ccc3o2)[nH]c2cc(C3=NCCN3)ccc12` is 60% or above. Satisfied

Exam item: decide whether the reported growth inhibition for Cc1ccc(C)c(N2C(=O)C(=O)C(c3nc4ccccc4o3)/C(=N\NC(=O)c3ccccc3O)C2=O)c1 (stereo not drawn) is at least 60%. Not satisfied

----------
assay: NCI Yeast Anticancer Drug Screen. Data for the bub3 strain (AID 167); conditions: S. cerevisiae bub3 mutant strain, at 50.0 µM, hits give high values
Compounds without any hit were thinned out: in the full panel of roughly 79,000, 15% have a hit.
property label: growth inhibition (%)
Give bare numbers, in %.

The following compounds have reported results that may help.
compound	growth inhibition [%]
CC(=O)c1ccc(OCc2ccccc2)cc1	9.75
Cc1c2ccnc(C(N)=O)c2c(C)c2c1[nH]c1ccccc12	56.1
CCN(CC)CCOc1ccc(/C=C/c2ccccc2)cc1	93.4
Cc1ccc2c(ccc3c[n+]4c5ccccc5ccc4n32)c1	99.3
COc1ccc(NC(=O)OC(C)C)c(OC)c1	18.4

Look at each compound and report its growth inhibition.
1. O=C(O)C(c1ccc(Cl)cc1)c1ccc(Cl)cc1
2. O=C(CCN1CCCCC1)/C(=C\c1ccc(Cl)cc1)c1ccccc1
3. COc1ccc(C(C#N)=C2C=CC(=NOC(=O)Nc3ccccc3)C=C2)cc1
4. Nc1ccc(Cc2ccc(N)cc2[N+](=O)[O-])c([N+](=O)[O-])c1
5. O=[N+]([O-])c1ccc(-n2ncc3cccnc32)c([N+](=O)[O-])c1
6. COc1ccc(C(=O)Nc2ccc(O)c(=O)cc2)cc1

97.4
99
69.1
35.4
92
87.4

Go through the items and report each one's growth inhibition.
1. CC(=O)Oc1cc2c(cc1OC(C)=O)OCC(c1ccc(C)cc1)C2 (stereo not drawn)
2. Cc1cc(N(CCC#N)CCC#N)ccc1/C(N=Nc1cccc([N+](=O)[O-])c1)=N/NC(=O)c1cc(Cl)ccc1O

[73.7, 79.3]

Dear colleague, could you send me growth inhibition for each of the items below? Thanks.
1. C=C1C(=O)O[C@H]2[C@H](OC(C)=O)[C@@H](C)CCC/C(C)=C/CC[C@@]3(C)O[C@@H]3C[C@@H]12
2. COC(=O)c1[nH]c(=O)c(C#N)c(C(=O)OC)c1C(=O)c1ccc2ccccc2c1
3. CC(=O)OC1(C)C(=C(Cl)Cl)C2c3ccccc3C1c1ccccc12 (stereo not drawn)
4. CCN(CC)CCOc1ccc(/C=C(\C#N)c2ccc(OC)cc2)cc1

[93, 24.6, 93.2, 68.5]

----------
Would you mind telling me the reported growth inhibition of each entry?
assay: NCI Yeast Anticancer Drug Screen. Data for the mec2-1 strain (AID 157); conditions: S. cerevisiae mec2-1 strain, at 50.0 µM, hits give high values
The panel holds about 79,000 compounds, 15% with a hit somewhere; the sample as a whole holds those more often.
Give bare numbers, in %.

compound	property label	measured result
CCC[CH2][Sn]([CH2]CCC)([O]C(=O)c1cc(F)cc(F)c1)[O]C(=O)c1cc(F)cc(F)c1	growth inhibition	52.4

Batch lookup, growth inhibition per entry.
1. O=C=Nc1ccccc1-c1ccc([N+](=O)[O-])cc1Cl
2. CCNCCNc1cc(O)c2c(c1O)C(=O)c1ccccc1C2=O
3. CCCCCC/C=C\CCCCCCCCCC1=C(CN2CCN(C)CC2)C(=O)C=C(OC)C1=O
4. COC(=O)c1cc(OC)c(OC)c(OC)c1
5. Cc1ccc(-c2c3c(cc4cc(C)ccc24)C(=O)OC3=O)cc1
6. CN(C)CC1CC/C(=C\c2ccc(O)cc2)C1=O (stereo unspecified)
7. CC(CCNCCC#N)CC(C)(C)C (stereo unspecified)

1: 37.6; 2: 84.9; 3: 91.8; 4: -0.5; 5: 6.85; 6: 93.7; 7: 47.8

Hey, can you go through the list below and give me growth inhibition for every item?
1. CCCC(=O)Oc1ccc(-c2ccccc2Br)cc1
2. Cc1cc(=O)oc2c(C)c3oc(CBr)cc3cc12
3. C=C1C(=O)OC2C/C(C)=C/CC/C(C)=C/CCC3(COC(C)=O)OC3CC12 (stereo unspecified)

82.5
62.7
94.2
